# Subject of test: Human recombinant COX-2 (Homo sapiens, UniProt P35354)
# Sequence (P35354 18-604): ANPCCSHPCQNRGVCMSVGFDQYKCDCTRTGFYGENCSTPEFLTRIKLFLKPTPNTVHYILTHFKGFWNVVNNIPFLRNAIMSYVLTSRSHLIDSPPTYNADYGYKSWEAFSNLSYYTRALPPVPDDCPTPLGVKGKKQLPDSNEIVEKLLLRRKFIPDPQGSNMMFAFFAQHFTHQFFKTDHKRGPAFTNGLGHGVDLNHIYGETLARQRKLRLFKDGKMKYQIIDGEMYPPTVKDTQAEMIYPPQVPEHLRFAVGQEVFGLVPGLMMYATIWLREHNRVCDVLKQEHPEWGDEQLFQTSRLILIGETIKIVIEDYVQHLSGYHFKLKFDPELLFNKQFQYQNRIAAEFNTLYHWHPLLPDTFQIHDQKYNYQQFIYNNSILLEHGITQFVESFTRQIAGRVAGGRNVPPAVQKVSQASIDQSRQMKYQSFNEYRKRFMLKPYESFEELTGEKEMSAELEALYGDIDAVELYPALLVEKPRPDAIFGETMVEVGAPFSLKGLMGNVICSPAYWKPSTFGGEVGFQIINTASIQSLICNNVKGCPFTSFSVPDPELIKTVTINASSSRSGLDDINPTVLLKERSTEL
# Procedure text: biochemical
Endpoint label: IC50 (µM)

COc1cc(-c2cc(-c3ccc(S(C)(=O)=O)cc3)nc3nc4ccccc4n23)cc(OC)c1OC [Compound 5i] : 0.58

A = COc1ccc(-c2cc(-c3ccc(S(C)(=O)=O)cc3)nc3nc4ccccc4n23)cc1 [Compound 5g]
B = Cc1ccc(-c2cc(-c3ccc(S(C)(=O)=O)cc3)nc3nc4ccccc4n23)cc1 [Compound 5d]
C = COc1ccccc1-c1cc(-c2ccc(S(C)(=O)=O)cc2)nc2nc3ccccc3n12 [Compound 5e]
Inquiry: Put the items in sequence by IC50, from largest down. Order the labels as requested and list them.
Reply text: A, B, C
(A: 5.4 µM, B: 0.68 µM, C: 0.06 µM)
